system tested: T1, human IL-12RB1 with C-terminal FLAG tag, transiently expressed on HEK-293T cells (human, UniProt P42701 24-662)
T1 construct: whole, on cells
test details: FACS, periplasmic extract, HEK-293T

| binder | FOB (fold) |
| --- | --- |
| VHH245B1 (VHH) VHH: QVQLQESGGGLVQAGGSLRLSCAASGSIASINAMGWYRQAPGKQRDFVARIQLSGQTSYAHSVRGRFTISRDNAKNTVYLQMNNLKPEDTAVYVCAASNTGSLYGLRNYWGQGTQVTVSS | 78 |
| VHH276B1 (VHH) VHH: QVQLVESGGGLVQAGASLRLSCAASGRTFSSYAMGWFRQAPGKEREFVAAISGGTPNNIYYTNYKDAVRGRFTISRDNAKNTVYLQMSSLKPEDTAVYYCGATMGRYWNTGGYDYWGQGTQVTVSS | 31 |
| VHH115B1 (VHH) VHH: QVQLVESGGGLVQAGGSLRLSCLASGRTSNYFMGWFRQAPGKEREFVAAISRSGGGTWYADSVKGRFAISRDNAKNTVNLQMNSLKREDTAVYYCAADRRTGTSVYTVDEYDYWGQGTQVTVSS | 101 |
| VHH104B1 (VHH) VHH: EVQLVESGGGLVQPGGSLRLFCAASRSIFNINIMGWYRQAPGKQREWLASITSGGSTFYADSVKDRFTISRDSVKNTVYLQMNSLKPEDTAAYYCNRYRSVPLNTVYPWGQGTLVTVSS | 152 |
